System: PPARg:RXRa 90nM:30nM, anti-RXR (NR concentration 90 nM, RXRa partner concentration 30 nM)
Test: PBM binding z-score (relative to random genomic background probes); higher = stronger binding; sequences stand for … in GC…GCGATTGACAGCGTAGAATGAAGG
Recorded PBM binding z-score for the following sequences
MEASURE: PBM binding z-score

1) TCTTGTAGATCAAATGTTAAGAAAGCCGAAGCCT :: 3.61
2) AGAACGTGGGCAATGAGTTGATAGCACGGGTGGC :: -0.679
3) CCTAGCAGGTCAGGGTCACTCAAGCATTTCGCTT :: 3.27
4) TGAATGAGGTTATAAGATCAGTGAACGTTGCAAA :: 1.35

----------
System: RARb:RXRa (NR concentration 270 nM, RXRa partner concentration 90 nM)
Assay: PBM binding z-score (relative to random genomic background probes); higher = stronger binding; sequences stand for … in GC…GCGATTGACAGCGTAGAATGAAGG
MEASURE: PBM binding z-score

1. GCGACTGTGGCATCAGCAGGTTACCATAACTTAA :: 0.00959
2. AATACAGGGTCACTAGGCCACAGTAGGTACGAAT :: 4.27
3. CGTCAAAGTTCAACTAAGGTAACGTTAAGCACGC :: 5.22
4. ACAGACAGGTGAGTGAAGGCAACTCAGCTGGACG :: 0.403
5. AGAACGAGGGCACGCTGATTTGATAGCAGAGTAG :: 2.67
6. ACTATTAGATGAGACGAGGGCAACCGATAGGTTG :: 0.915
7. GCTATTAGTTGAAACGGCAACCGAATGATTCTCG :: -0.226
8. CGTCCACGGTCAAGGTCAGTGAAAGAGACTCGAA :: 4.28
9. ATATGTAGGTTACATCCGGTTCATTCAGGCTATG :: 1.22
10. CCGACTGGGCCAAAGGTCATTGATTCCAATGCTC :: 4.52
11. CAGCCTAGGTCAGGGCCAGTATTGGAGGAACGTT :: 3.35
12. CCTATTTGGTCAAGGTCACACACGCTATAGGTAC :: 4.3
13. CGTCCATGGTCAATGCTAGGTCAGTGAAAGCATT :: 2.17
14. CGAACTAGGTCATTGACGGGACAGTGAATAGTAA :: 3.63
15. TCTTGTAGAGCAATAGAGGTTAAGAAAGTGCGCT :: 0.425
16. AATACAGGGTCATCGTAGGCCAGGGTACGCACAG :: 4.32
17. GCTGCTAGGTCAGGTTGGTCAGCGAACGGGTACG :: 3.31
18. TCATATAGGTAAAGGTGAAAGTCGAACGATATGA :: 2.1
19. TCGAGTAGGTTACCAATGGTGCATTCAGCTTTCT :: 0.684
20. CGTCCACGGTCAGCAGGTCAGTGAAAGCGACGTG :: 3.25
21. GCTTACGGGTCAAACGTTATAGCATGAATAGAAT :: 3.76
22. CCTTACGGGTCACGAGGTTATAGCCCGACGAGCG :: 4.74
23. ACTAGTTGGTCAGCTTAGGTCACACACAATTCGG :: 2.65
24. TCGGGTAGGTTACCAATGGGGCATTCAGCTTTCT :: 1.41
25. ATACCAAGGTGACCGTGAGGTCGTTGATACTAAC :: 2.46
26. CGTCCAAGGTCAAAAGTCAGTGAAGAGATGACGG :: 4.63

----------
System: PPARg:RXRa DBDmut IVT, anti-RXR (DBD mutation: RXRa K156A/R161A, NR concentration 270 nM, RXRa partner concentration 90 nM)
Assay: PBM binding z-score (relative to random genomic background probes); higher = stronger binding; sequences stand for … in GC…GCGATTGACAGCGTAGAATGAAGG
Label rule, in plain words: PBM binding z-score of 1 and up is Fulfilled, under 1 is Not fulfilled.

1. CGAACTAGGTCACTGACAGGACAGTGAATAGTAA :: Fulfilled
2. GCGACTGGGGCAAAGCAGATTACCATAAGGTTGG :: Fulfilled
3. CAGACTGGGGCATAAGGTTACCATAAGCCAGCCC :: Fulfilled
4. ACAGACAGGTGAGTGAAGTTAACTCAGCTGGACG :: Not fulfilled
5. GCTCGGAGGACGAGGTCAGAGCTTTGTCCGTAGA :: Not fulfilled
6. GGTAGCAGGCCATTTGGGTCACTCAATGACGGGC :: Not fulfilled
7. GAAACGAGGGCAAGTTGATAGCAGAGTTTGATGG :: Fulfilled
8. CCGAGTAGGTTATGGGGCAGTCAGGCAACGGTGA :: Fulfilled
9. CCTCGGAGGACCACAGGAGGTCAGAGCTGCCAGA :: Not fulfilled
10. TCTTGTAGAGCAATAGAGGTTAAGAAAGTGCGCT :: Fulfilled
11. AGTCAAAGTTCACTAGTTAACGTAAGATTCAGCT :: Not fulfilled
12. CCTACTGGGCCAAAGGTCATTGTTTCCAATGCTC :: Fulfilled
13. GCAGACAGGTGAAACGCAGGTAACTCAAGGTGGC :: Fulfilled
14. GGAACGAGGGCATTCGAGTTGATCGCATGGCGAT :: Fulfilled
15. CCAGACAGGAGAGAAGGTAACTCAGCCTCGATTA :: Not fulfilled

----------
Recorded PBM binding z-score for the following sequences
Test system: THRa homodimer (NR concentration 90 nM)
Assay: PBM binding z-score (relative to random genomic background probes); higher = stronger binding; sequences stand for … in GC…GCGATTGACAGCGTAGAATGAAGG
MEASURE: PBM binding z-score

1) CTCGAAAGGTCGTGCTCAGGTGACTATACCAAAC :: 1.69
2) AGAACGAGGGGAATGAGTTGATAGCACGGGTGGC :: -0.151
3) GGAACGAGGGCAAGTTGTTAGCAGAGTTTGATGG :: 0.187
4) ATCGAAAGGTCGGAGGTGAGTATACCCACCCGAA :: -0.0288
5) AATACAGGGTCATCGTAGGCCGGAGTACGCACAG :: 1.46
6) ATCTCTAGGTAAAGTTCAGTGACAGATCGATAGA :: 0.436
7) ATAGGTAGGTTATCGGGTCATTCAGTTTGCGCAT :: 3.2
8) TCTTGTAGATGAATAGAGGTTAAGAAAGTGCGCT :: 0.0374
9) CCTATTAGTTGACCATCAGGGCAACCGAAGCTCG :: 0.957
10) GCGACTGGGGCAAAGCAGGTTACCATAAGGTTGG :: 0.0306

----------
Tested on: RARg homodimer (NR concentration 270 nM)
Assay: PBM binding z-score (relative to random genomic background probes); higher = stronger binding; sequences stand for … in GC…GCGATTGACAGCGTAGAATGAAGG
Recorded PBM binding z-score for the following sequences
MEASURE: PBM binding z-score

1. GCTGCTAGGTCAGGTTGTTCAGCTAACGGGTACG :: 3.13
2. TAGCATAGGTCATTGGGCCAGTATAGTACGCATC :: 4.65
3. TTACCAAGGTAAAGGTCGTTGATCCCTCTGTAGA :: 1.08
4. GTACCAAGGTGAATAGGTCGTTAATGAGTAGGCG :: 1.37
5. AGAATGAGCTTATACGTAGATCAGGGAAGAAAGT :: -0.0616
6. GATACAGGGTCAGCTCGAGGCCAGAGTATGGAAA :: 4.74
7. CGTCCAAGGTCAGAGAGGTCAGTCAATGCCGAGT :: 7.2
8. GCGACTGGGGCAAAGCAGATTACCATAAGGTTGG :: 0.273
9. TCTCGGAGGCCACGAAAGGTCAGAGCTCGACATC :: 5.06
10. CCTACTGGGCCAAAAAGGTCATTGCTGCCGATAA :: 4.02
11. AGAATGAGTTTACCAAAGATCAGGGAAACGCTTG :: 0.236
12. TCATATAGGTAAAGGTGAACGTCGAACGATATGA :: 1.52
13. ATCGAAAGGTTGACGAGGTGAGTATACACCGTTT :: 1.51
14. CGTCAAAGTTCAAGGTAAGGTAACAGAAAGCAGC :: 5.4
15. TCTTTTAGATCAAGCAGGTTAAGAAAGCCTGAGT :: 0.212
16. GCTAGTTGGTCAGTAAAAGGTCACACGCCGGTCG :: 5.2
17. ATCTCTAGGTAAGACTCAGTTCAGTGTAGAACGC :: 0.408
18. GATACAGCGTCAAGGCCAGAGTACGCGTATTGAT :: 0.129
19. AGAACGAGGGCAATGAGTTGATATCACGGGTGGC :: 1.45
20. GCTATTAGTAGAAAGGGCAACCGAATGATTCTCG :: 1.32
21. TCTTGTAGATCAGCACGTTAAGAAAGCTGGCCAA :: -0.479
22. GCTTGTAGATCCAGGTTAAGAAAGACTAAGCTAA :: -0.0642
23. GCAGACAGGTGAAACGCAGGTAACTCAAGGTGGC :: 0.318
24. CAAACTAGGTAAAAGGTCAAAGTCGAGCCAACCA :: 5.16
25. CCGACTGGGGCAGAAAGGTTAGCATACCATCCGG :: 0.862
26. ACAGACAGGTGAATGAAGGTAACTCAGCTGGACG :: 0.784
27. ACATACAGGTGATGAAGGTAACTCAGGCTATCAT :: 0.615
28. ATATGTAGGTTAAGGGTTATTCAGGTTGGTTCGC :: 1.34
